System: P12-Ichikawa
Assay Comment: cell viability relative to DMSO control; higher = less cytotoxic
Particulars: HPLM + 10% dialyzed FBS; 48 h; 0.0211 µM
Consider the following molecules and their measured cell viability readings.
Experimental Readout: cell viability (%)

smiles_representation=Cc1cc(O)c2c(c1)C(=O)c1cccc(O)c1C2=O experimental_readout="cell viability" test_value=127
smiles_representation=CCOC(=O)N1c2ccc(C(F)(F)F)cc2[C@@H](N(Cc2cc(C(F)(F)F)cc(C(F)(F)F)c2)C(=O)OC)C[C@H]1CC experimental_readout="cell viability" test_value=119
smiles_representation=C[C@@H]1O[C@@H](O[C@H]2C[C@@H](O)[C@]3(CO)[C@H]4[C@H](O)C[C@]5(C)[C@@H](C6=CC(=O)OC6)CC[C@]5(O)[C@@H]4CC[C@]3(O)C2)[C@H](O)[C@H](O)[C@H]1O experimental_readout="cell viability" test_value=85.2
smiles_representation=Cc1nn(C)c(COc2ccc(N3CCN([S+](=O)([O-])N(C)C)CC3)cc2)c1-c1cccc2c(CCCOc3cccc4ccccc34)c(C(=O)O)n(CCN3CCOCC3)c12 experimental_readout="cell viability" test_value=102
smiles_representation=O=C(CCc1ccc(O)cc1)c1c(O)cc(O)cc1O experimental_readout="cell viability" test_value=99.5
smiles_representation=Cc1c(-c2cccc3c(CCCOc4cccc5ccccc45)c(C(=O)O)n(Cc4cccnc4)c23)c(COc2ccc(N3CCN([S+](=O)([O-])N(C)C)CC3)cc2)nn1C experimental_readout="cell viability" test_value=93.2

---

Tested on: SEM cells
Assay Comment: cell viability relative to DMSO control; higher = less cytotoxic
Particulars: HPLM + 10% dialyzed FBS; 48 h; 0.0211 µM
Experimental Readout: cell viability (%)

smiles_representation=C[C@@H]1O[C@@H](O[C@H]2C[C@@H](O)[C@]3(CO)[C@H]4[C@H](O)C[C@]5(C)[C@@H](C6=CC(=O)OC6)CC[C@]5(O)[C@@H]4CC[C@]3(O)C2)[C@H](O)[C@H](O)[C@H]1O unit_tag=% test_value=85.8
smiles_representation=O=C(Nc1nnc(-c2ccco2)o1)c1cc(-c2ccccc2)nc2ccccc12 unit_tag=% test_value=95
smiles_representation=COc1cc([C@@H]2c3cc4c(cc3[C@H](O)[C@H]3COC(=O)[C@@H]23)OCO4)cc(OC)c1OC unit_tag=% test_value=101
smiles_representation=C[C@]12Cc3cn[nH]c3C[C@@H]1CC[C@@H]1[C@@H]2CC[C@@]2(C)[C@H]1CC[C@]2(C)O unit_tag=% test_value=79.7

---

Tested on: NOMO1
Assay Comment: AUC of viability dose-response curve (% viability x log10 dose units); higher = less sensitive
Particulars: HPLM + 10% dialyzed FBS; 48 h
Reported AUC of viability dose-response curve values for a set of molecules
Experimental Readout: AUC of viability dose-response curve

molecule=O=[N+]([O-])c1ncc[nH]1 experimental_readout="AUC of viability dose-response curve" test_value=416
molecule="C=C1/C(=C/C=C2\\CCCC3(C)[C@@H]([C@H](C)/C=C/C=C/C(O)(CC)CC)CC[C@@H]23)C[C@@H](O)C[C@@H]1O (stereo partly drawn)" experimental_readout="AUC of viability dose-response curve" test_value=437
molecule=C[C@]1(CO)CN(c2cc(C(=O)Nc3ccc4c(c3)-c3c(c(C(N)=O)nn3-c3ccc(F)cc3)CC4)c(Cl)cn2)C[C@@]1(C)CO experimental_readout="AUC of viability dose-response curve" test_value=446
molecule="CCCC(C)(COC(N)=O)COC(=O)NC(C)C (stereo not drawn)" experimental_readout="AUC of viability dose-response curve" test_value=466
molecule=C[C@]12Cc3cn[nH]c3C[C@@H]1CC[C@@H]1[C@@H]2CC[C@@]2(C)[C@H]1CC[C@]2(C)O experimental_readout="AUC of viability dose-response curve" test_value=458
molecule=Cc1c(-c2cccc3c(CCCOc4cccc5ccccc45)c(C(=O)O)n(Cc4cccnc4)c23)c(COc2ccc(N3CCN([S+](=O)([O-])N(C)C)CC3)cc2)nn1C experimental_readout="AUC of viability dose-response curve" test_value=407
molecule=C[N]1C=C(C2=CC=CC=C12)\C3=C(\C(=O)NC3=O)C4=C[N](C5CCN(CC5)CC6=NC=CC=C6)C7=C4C=CC=C7 experimental_readout="AUC of viability dose-response curve" test_value=458
molecule=O=S(=O)([O-])CCS.[Na+] experimental_readout="AUC of viability dose-response curve" test_value=367

---

Test system: SEM cells
Assay Comment: cell viability relative to DMSO control; higher = less cytotoxic
Particulars: RPMI 5 mM glucose + 10% FBS; 48 h; 1.71 µM
Experimental Readout: cell viability (%)

molecule=CCN1C[C@H](C)[N]2C(=C(O)C3=C2\C(=N/N(CC4=CC=C(F)C(=C4)Cl)C3=O)C(=O)NC)C1=O test_value=18
molecule=COC(=O)Nc1nc2cc(C(=O)c3ccc(F)cc3)ccc2[nH]1 test_value=40.4
molecule=O=C1\C=C/C=C2/[C@H]3CNC[C@H](C3)CN12 test_value=127
molecule=O=C1CCC[C@@H]2[C@H]3CCCN4CCC[C@@H](CN12)[C@@H]34 test_value=84
molecule=N\C1=N\C2=C(N=C[N]2COCCO)C(=O)N1 test_value=117
molecule="O=C(O)CCCCC(CCSCc1ccccc1)SCc1ccccc1 (centres undefined)" test_value=121
molecule=COc1cc([C@@H](CC(=O)O)c2ccc(C)c(CN3C[C@@H](C)Oc4ccccc4[S+]3(=O)[O-])c2)cc2nnn(C)c12 test_value=96.6
molecule=CCOc1cc2ncc(C#N)c(Nc3ccc(F)c(Cl)c3)c2cc1NC(=O)/C=C/CN(C)C test_value=40.2
molecule="N[C@H]2CN(CC12CC1)c3c(F)cc4c(c3Cl)[N@@](C=C(C4=O)C(=O)O)C5C[C@H]5F (some centres undefined)" test_value=113

---

Test system: NOMO1
Assay Comment: cell viability relative to DMSO control; higher = less cytotoxic
Particulars: RPMI 5 mM glucose + 10% dialyzed FBS; 48 h; 46.1 µM
Just a reminder that ties go to No: only cell viability strictly below 80% counts as Yes.

molecule=CC(=O)OC[C@H]1O[C@@H]([S-])[C@H](OC(C)=O)[C@@H](OC(C)=O)[C@@H]1OC(C)=O.CCP(CC)CC.[Au+] discrete_label=Yes
molecule="CCOC(=O)C(C#N)C\\1C2=CC(=CC=C2O\\C(=C1C(=O)OCC)N)Br (centres undefined)" discrete_label=No
molecule="COc1ccc(C(CN(C)C)C2(O)CCCCC2)cc1 (centres undefined)" discrete_label=No
molecule=CCOC(=O)N1c2ccc(C(F)(F)F)cc2[C@@H](N(Cc2cc(C(F)(F)F)cc(C(F)(F)F)c2)C(=O)OC)C[C@H]1CC discrete_label=No
molecule=O=C(CCCCCCC(=O)Nc1cccnc1)NO discrete_label=Yes
molecule=CC1=C(/C=C/C(C)=C/C=C/C(C)=C\C(=O)O)C(C)(C)CCC1 discrete_label=Yes
molecule=C[C@H]1C[C@H]2[C@@H]3CC[C@](O)(C(=O)CO)[C@@]3(C)C[C@H](O)[C@@H]2[C@@]\4(C)/C=C\C(=O)\C=C14 discrete_label=No
molecule="C=C1C(=O)OC(CCCCCCCC)C1C(=O)O (centres undefined)" discrete_label=No
molecule=CC[N+](CC)(CC)CCOc1cccc(OCC[N+](CC)(CC)CC)c1OCC[N+](CC)(CC)CC discrete_label=No

---

Test system: SEM cells
Assay Comment: cell viability relative to DMSO control; higher = less cytotoxic
Particulars: RPMI 5 mM glucose + 10% dialyzed FBS; 48 h; 46.1 µM
Experimental Readout: cell viability (%)

molecule="N[C@H]2CN(CC12CC1)c3c(F)cc4c(c3Cl)[N@@](C=C(C4=O)C(=O)O)C5C[C@H]5F (some centres undefined)" study_target="SEM cells" test_value=78.7
molecule=CC[N+](CC)(CC)CCOc1cccc(OCC[N+](CC)(CC)CC)c1OCC[N+](CC)(CC)CC study_target="SEM cells" test_value=128
molecule=COc1cc([C@@H](CC(=O)O)c2ccc(C)c(CN3C[C@@H](C)Oc4ccccc4[S+]3(=O)[O-])c2)cc2nnn(C)c12 study_target="SEM cells" test_value=53.9
molecule=CCOC(=O)N1c2ccc(C(F)(F)F)cc2[C@@H](N(Cc2cc(C(F)(F)F)cc(C(F)(F)F)c2)C(=O)OC)C[C@H]1CC study_target="SEM cells" test_value=116
molecule=O=C/1NC(=O)C(=C1C2=CN=C3C=CC=C[N]23)/C4=C[N]5CCN(CC6=C5C4=CC=C6)C(=O)N7CCOCC7 study_target="SEM cells" test_value=10.6
molecule=NC(=O)Nc1sc(-c2ccc(F)cc2)cc1C(N)=O study_target="SEM cells" test_value=11
molecule="O=C(O)CCCCC(CCSCc1ccccc1)SCc1ccccc1 (centres undefined)" study_target="SEM cells" test_value=93.5
molecule=O=C1CCC[C@@H]2[C@H]3CCCN4CCC[C@@H](CN12)[C@@H]34 study_target="SEM cells" test_value=68.3
molecule=O=C(CCCCCCC(=O)Nc1cccnc1)NO study_target="SEM cells" test_value=6.39
